Exercise: for every item that follows, state its recorded pIC50.
# SYSTEM_TESTED: MAPK14 (human)
# ASSAY: Inhibition of IL-6 Production in Whole Blood
pIC50: −log10 of the molar value.

Inquiry: Field request: pIC50 | item: "Nc1ccc(Cl)c(-c2c(=O)ncn3nc(Sc4ccc(F)cc4)ccc23)c1Cl"
Reply text: < 6.30

Inquiry: Recorded pIC50 for Cc1cc(F)ccc1-c1cccc(C(C(N)=O)c2c(Cl)cc(N)cc2Cl)n1 (stereo not given) , please?
Reply text: < 6.30

Inquiry: Item "Nc1ccc(C2=C3C=CC(Sc4ccc(F)cc4)=NN3CNC2=O)c(Cl)c1" has what recorded pIC50?
Reply text: 6.30 to 6.60

Inquiry: Dear colleague, I am looking for the recorded pIC50 of the following compound: NC(=O)C(c1cccc(-c2ccccc2)n1)c1c(Cl)cccc1Cl (stereo not given)
Reply text: < 6.30

Inquiry: Can you share its pIC50? I mean this compound: "CC(=O)Nc1ccc(C2=C3C=CC(Sc4ccc(F)cc4)=NN3CNC2=O)c(Cl)c1"
Reply text: < 6.30
